Consider the following compounds; for each one, report its Drug uptake.
Test system: Liver
METHOD DESCRIPTION: Biodistribution in liver of C57BL/6J mouse bearing mouse B16F0 cells at 0.37 to 1.85 MBq, iv after 16 hrs by gamma counting method
Assay type: ADME, organism-based
CONDITIONS: in vivo
Give bare numbers, in % ID/g.

Recorded Drug uptake, per entry:
- CHEMICAL STRUCTURE: "O=C(CN1Cc2ccccc2C1=O)NC1CCN(Cc2ccc([123I])cc2)CC1"
  Drug uptake (% ID/g): 7.1
- CHEMICAL STRUCTURE: "O=C(CN1Cc2ccccc2C1=O)N1C[C@H]2CN(Cc3ccc([123I])cc3)C[C@H]2C1"
  Drug uptake (% ID/g): 0.7
- CHEMICAL STRUCTURE: "O=C(c1ccc2c(n1)NCCC2)N1CCN(Cc2ccc([123I])cc2)CC1"
  Drug uptake (% ID/g): 0.9

Pending compound:
Query: What value of measured Drug uptake is listed for "O=C(c1ccc2cccnc2n1)N1CCN(Cc2ccc([123I])cc2)CC1" ?
Result: 2.4

Where these numbers come from: ChEMBL document CHEMBL3588831
